EXPERIMENT_DESCRIPTION: Determination of inhibitor concentration in mouse plasma after intraperitoneal and oral dosing
Assay type: in vivo
MEASUREMENT_CONDITIONS: PO, 25 mg/kg, vehicle PEG400:H2O pH 2.3 30:70
Procedure: Blood collection was via ocular bleed at 0.5, 1, 4 hr with the final time point, 7 hour, via intracardiac puncture. The blood was centrifuged to collect plasma, which was then stored at −80° C. until analysis. Samples were prepared for analysis using an internal standard and sodium hydroxide. […] The samples were then analyzed via HPLC or LC-MS. Compound levels were quantitated by generating a standard curve of known compound concentration in mouse plasma.
VALUE_TYPE: plasma half-life (T1/2) (h)
All answers are understood in h, so give the number only.

Check out these entries, answers already filled in.
CC(C)ONC(=O)c1cccc(F)c1Sc1ccc2c(/C=C/c3ccccn3)n[nH]c2c1 :: 1.2
Cc1cc(C(=O)Nc2cccc(C(=O)c3ccc4c(/C=C/c5ccccn5)n[nH]c4c3)c2)n(C(C)C)n1 :: 4.2
CCn1nc(C)cc1C(=O)Nc1cccc(Oc2ccc3c(/C=C/c4cn(C)c(C)n4)n[nH]c3c2)c1 :: 2.6
CCCONC(=O)c1ccccc1Sc1ccc2c(/C=C/c3ccccn3)n[nH]c2c1 :: 1.1
CN(O)C(=O)c1ccccc1Sc1ccc2c(/C=C/c3ccccn3)n[nH]c2c1 :: 1.0
Cc1cc(C(=O)Nc2cccc(C(=O)c3ccc4c(/C=C/c5ccccn5)n[nH]c4c3)c2)cc(Cl)n1 :: 5.2

// next entry
Value lookup for plasma half-life (T1/2); key = `CC(C)=CC(=O)Nc1cccc(C(=O)c2ccc3c(/C=C/c4ccccn4)n[nH]c3c2)c1`
0.8
